Molecular target: Cholecystokinin receptor type A (Rattus norvegicus, UniProt P30551)
Sequence (P30551 whole entry): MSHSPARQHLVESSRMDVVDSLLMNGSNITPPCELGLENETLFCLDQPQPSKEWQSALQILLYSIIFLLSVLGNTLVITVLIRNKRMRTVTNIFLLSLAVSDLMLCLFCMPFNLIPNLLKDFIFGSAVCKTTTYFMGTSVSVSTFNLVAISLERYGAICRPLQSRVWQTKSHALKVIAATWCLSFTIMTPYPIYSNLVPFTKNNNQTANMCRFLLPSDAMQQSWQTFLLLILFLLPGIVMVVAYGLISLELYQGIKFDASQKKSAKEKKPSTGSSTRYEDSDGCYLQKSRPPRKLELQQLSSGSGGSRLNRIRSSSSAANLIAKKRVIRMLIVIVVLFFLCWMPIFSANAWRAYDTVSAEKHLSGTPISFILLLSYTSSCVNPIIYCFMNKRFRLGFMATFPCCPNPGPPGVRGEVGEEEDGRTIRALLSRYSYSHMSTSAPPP
VALUE_TYPE: pIC50
Answers are plain numbers, as −log10 of the molar value.

Recorded result, Cc1cccc(NC(=O)N[C@@H]2C[C@H](N3CCCCCC3)c3ccccc3N(C)C2=O)c1 , pIC50: 6.92
